Reported pKi is given for each of the following molecules.
Target: Glutamate receptor 2 (Homo sapiens)
Sequence (P42262 whole entry, canonical isoform): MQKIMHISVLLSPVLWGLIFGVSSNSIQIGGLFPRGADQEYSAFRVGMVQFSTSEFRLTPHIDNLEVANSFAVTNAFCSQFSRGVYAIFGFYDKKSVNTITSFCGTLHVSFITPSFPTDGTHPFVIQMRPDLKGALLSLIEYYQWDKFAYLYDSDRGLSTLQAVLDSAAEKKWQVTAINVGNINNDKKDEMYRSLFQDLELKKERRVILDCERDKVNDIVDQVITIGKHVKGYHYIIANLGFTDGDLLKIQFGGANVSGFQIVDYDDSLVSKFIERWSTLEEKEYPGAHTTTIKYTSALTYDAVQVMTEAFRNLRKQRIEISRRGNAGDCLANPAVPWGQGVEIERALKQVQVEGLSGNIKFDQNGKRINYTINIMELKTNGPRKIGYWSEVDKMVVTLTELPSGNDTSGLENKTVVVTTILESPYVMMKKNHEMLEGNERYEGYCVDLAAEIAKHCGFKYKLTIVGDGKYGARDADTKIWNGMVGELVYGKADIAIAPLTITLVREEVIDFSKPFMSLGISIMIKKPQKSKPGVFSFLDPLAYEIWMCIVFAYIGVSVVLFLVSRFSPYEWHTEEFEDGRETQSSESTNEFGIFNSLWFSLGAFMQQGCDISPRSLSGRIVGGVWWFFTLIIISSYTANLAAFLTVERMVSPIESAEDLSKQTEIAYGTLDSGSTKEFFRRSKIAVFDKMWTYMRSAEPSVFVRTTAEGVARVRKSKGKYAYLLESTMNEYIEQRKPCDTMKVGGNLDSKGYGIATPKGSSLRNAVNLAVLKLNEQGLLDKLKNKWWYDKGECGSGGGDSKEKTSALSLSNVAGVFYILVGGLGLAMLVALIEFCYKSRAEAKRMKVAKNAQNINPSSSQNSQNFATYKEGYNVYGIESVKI
Assay Procedure: Antagonist activity at open state of GFP-tagged GluA2Qflip isoform (unknown origin) expressed in HEK293S cells assessed as reduction in glutamate-induced current response in presence of 3 mM glutamate by whole cell assay relative to control
Type: cell-based
pKi: −log10 of the molar value.
Observation Type: pKi

| Line Notation | Observed Result |
| --- | --- |
| CC1=NN=C(c2ccc(N)cc2)c2cc3c(cc2C1)OCO3 | 5.30 |
| Cc1cc(C2=NNC(=O)Cc3cc4c(cc32)OCCO4)ccc1N | 5.05 |
| Cc1cc(C2=NNC(=O)Cc3cc4c(cc32)OCCO4)cc(C)c1N | 3.79 |
| Nc1ccc(C2=NNC(=O)Cc3cc4c(cc32)OCCO4)cc1 | 4.48 |

----------
Target: UniProt:P42261
Sequence (P42261 whole entry): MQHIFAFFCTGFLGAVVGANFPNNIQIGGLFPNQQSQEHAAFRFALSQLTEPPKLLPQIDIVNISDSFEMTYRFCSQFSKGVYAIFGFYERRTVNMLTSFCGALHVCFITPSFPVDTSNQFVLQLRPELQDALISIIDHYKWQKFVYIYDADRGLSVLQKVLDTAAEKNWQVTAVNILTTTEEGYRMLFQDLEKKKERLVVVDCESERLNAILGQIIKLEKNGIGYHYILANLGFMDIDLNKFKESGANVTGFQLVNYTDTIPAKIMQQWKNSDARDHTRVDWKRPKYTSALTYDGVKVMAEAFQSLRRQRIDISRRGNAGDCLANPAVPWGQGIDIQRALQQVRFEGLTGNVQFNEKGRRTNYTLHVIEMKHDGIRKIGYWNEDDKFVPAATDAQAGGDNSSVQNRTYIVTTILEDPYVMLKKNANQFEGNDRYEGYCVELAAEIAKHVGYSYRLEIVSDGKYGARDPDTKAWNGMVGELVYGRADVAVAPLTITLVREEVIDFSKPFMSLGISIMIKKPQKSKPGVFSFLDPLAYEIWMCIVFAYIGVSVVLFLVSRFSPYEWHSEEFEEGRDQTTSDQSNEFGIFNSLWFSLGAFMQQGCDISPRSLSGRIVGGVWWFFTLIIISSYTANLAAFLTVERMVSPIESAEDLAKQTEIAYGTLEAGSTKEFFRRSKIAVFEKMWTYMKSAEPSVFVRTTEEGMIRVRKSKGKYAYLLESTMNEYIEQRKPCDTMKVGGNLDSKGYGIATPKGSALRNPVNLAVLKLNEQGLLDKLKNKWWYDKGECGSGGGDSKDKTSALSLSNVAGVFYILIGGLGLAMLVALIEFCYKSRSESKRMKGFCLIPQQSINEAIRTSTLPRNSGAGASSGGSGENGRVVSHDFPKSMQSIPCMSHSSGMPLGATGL
Assay Procedure: Antagonist activity at closed state of GluA1 (unknown origin) assessed as reduction in glutamate-induced current response in presence of 40 to 50 uM glutamate
pKi: −log10 of the molar value.

| Compound | pKi |
| --- | --- |
| Cc1cc(C2=NN(CC3CC(Br)=NO3)C(=O)Cc3cc4c(cc32)OCCO4)cc(C)c1N (stereo unspecified) | 4.88 |

----------
Target: Glutamate receptor 4 (Homo sapiens, UniProt P48058)
Sequence (P48058 whole entry): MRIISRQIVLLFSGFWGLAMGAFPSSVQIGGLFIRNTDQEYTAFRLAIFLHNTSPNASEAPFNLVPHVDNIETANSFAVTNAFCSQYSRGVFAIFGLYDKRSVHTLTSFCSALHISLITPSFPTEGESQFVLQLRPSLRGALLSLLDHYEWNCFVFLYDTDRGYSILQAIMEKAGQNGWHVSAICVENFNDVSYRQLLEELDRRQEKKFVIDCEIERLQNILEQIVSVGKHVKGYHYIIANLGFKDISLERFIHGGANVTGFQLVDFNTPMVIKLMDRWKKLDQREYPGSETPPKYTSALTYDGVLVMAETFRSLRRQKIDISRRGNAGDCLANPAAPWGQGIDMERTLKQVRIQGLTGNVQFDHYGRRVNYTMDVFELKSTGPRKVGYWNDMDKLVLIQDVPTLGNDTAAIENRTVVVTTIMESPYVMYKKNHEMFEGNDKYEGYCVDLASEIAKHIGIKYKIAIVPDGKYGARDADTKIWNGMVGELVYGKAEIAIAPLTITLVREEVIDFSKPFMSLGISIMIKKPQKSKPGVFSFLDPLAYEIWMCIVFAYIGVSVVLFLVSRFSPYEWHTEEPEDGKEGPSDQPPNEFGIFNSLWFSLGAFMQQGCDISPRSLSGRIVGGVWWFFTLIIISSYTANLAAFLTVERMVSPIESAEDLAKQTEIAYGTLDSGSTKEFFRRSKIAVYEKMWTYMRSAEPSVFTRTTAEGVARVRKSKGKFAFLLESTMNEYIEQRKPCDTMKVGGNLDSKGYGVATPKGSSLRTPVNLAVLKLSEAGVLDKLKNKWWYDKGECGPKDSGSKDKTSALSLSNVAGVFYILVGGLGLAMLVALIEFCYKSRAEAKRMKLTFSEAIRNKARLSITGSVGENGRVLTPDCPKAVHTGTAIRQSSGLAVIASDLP
Assay Procedure: Antagonist activity at open state of GluA4 (unknown origin) assessed as reduction in glutamate-induced current response in presence of 3 mM glutamate
pKi: −log10 of the molar value.

| Molecule | pKi |
| --- | --- |
| Cc1cc(C2=NN(CC3CC(Br)=NO3)C(=O)Cc3cc4c(cc32)OCCO4)cc(C)c1N (stereo unspecified) | 4.94 |

----------
Target: Glutamate receptor 3 (Homo sapiens, UniProt P42263)
Sequence (P42263 whole entry): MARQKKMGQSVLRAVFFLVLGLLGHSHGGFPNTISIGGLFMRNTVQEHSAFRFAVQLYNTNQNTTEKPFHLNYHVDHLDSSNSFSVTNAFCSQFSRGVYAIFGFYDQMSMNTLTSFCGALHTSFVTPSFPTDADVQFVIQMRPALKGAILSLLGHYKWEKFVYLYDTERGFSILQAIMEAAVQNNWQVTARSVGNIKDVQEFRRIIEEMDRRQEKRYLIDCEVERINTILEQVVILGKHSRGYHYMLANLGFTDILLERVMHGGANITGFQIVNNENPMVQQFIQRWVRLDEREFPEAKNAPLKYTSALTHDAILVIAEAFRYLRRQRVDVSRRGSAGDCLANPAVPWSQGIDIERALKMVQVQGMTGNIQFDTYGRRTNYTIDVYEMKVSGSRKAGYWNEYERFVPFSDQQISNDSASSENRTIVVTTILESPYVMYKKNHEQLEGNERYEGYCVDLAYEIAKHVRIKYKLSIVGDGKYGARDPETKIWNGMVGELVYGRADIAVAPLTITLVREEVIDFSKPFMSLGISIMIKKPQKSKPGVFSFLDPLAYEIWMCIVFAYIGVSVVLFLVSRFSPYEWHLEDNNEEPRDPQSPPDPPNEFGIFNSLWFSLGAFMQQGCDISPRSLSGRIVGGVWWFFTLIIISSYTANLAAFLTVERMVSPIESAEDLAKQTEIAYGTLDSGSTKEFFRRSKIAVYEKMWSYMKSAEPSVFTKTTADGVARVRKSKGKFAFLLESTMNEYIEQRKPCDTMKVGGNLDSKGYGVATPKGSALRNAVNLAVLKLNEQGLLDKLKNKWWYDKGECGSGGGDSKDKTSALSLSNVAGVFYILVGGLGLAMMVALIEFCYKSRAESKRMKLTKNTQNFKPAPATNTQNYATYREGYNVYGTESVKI
Assay Procedure: Antagonist activity at open state of GluA3 (unknown origin) assessed as reduction in glutamate-induced current response in presence of 3 mM glutamate

| Compound | Ki / µM |
| --- | --- |
| Cc1cc(C2=NN(CC3CC(Br)=NO3)C(=O)Cc3cc4c(cc32)OCCO4)cc(C)c1N (stereo unspecified) | 13.9 |
